Species: Homo sapiens
Assay: To identify inhibition of the IFN signalling (Jak-Stat) pathway via expression of an eGFP reporter gene under the control of an IFN-stimulated response element (ISRE) containing MxA promoter.
Type: functional
Set-up: scale not given: direction of the effect not stated beside the values
Conditions: 30 µM
measured_metric: Percent Effect (%)

OC(CN1CCN(c2ncccn2)CC1)c1cccc(F)c1 (centres undefined): 20.5
COc1ncccc1C(=O)N1CCCC(c2cc(C)[nH]n2)C1 (centres undefined): 10.4
COCCN1CC[C@@H](O)[C@@H]1Cc1ccccc1: -7.47
O=C(Cc1ccccc1F)N1CCN(C(=O)c2ccoc2)CC1: -4.65
CCN(CC)CC(=O)NCCc1csc(N2CCCC2)n1: 5.85
Cn1ccnc1CN1CCN(CC(O)c2ccco2)CC1 (centres undefined): 16.1
OCCC1CN(C2CCC2)CCN1C1CCCC1 (centres undefined): -37
COC(=O)c1cccc(NS(=O)(=O)c2cnc(NC(C)=O)s2)c1: -6.95
CN(C)C(=O)N1CCN(Cc2ccccc2)[C@@H]2CS(=O)(=O)C[C@@H]21: 4.04
Cc1noc2nc(C3CCN(Cc4ccncc4)CC3)cc(C(F)F)c12: 39.2
c1coc(CN2C[C@H](OCC3CCOCC3)[C@H]3COC[C@H]32)c1: 13.1
CC(NC(=O)C1=NN(C)C(=O)CC1)c1ccc(F)cc1F (centres undefined): 14.5
Cn1cnc2c1CCN(CCCOc1ccc(C#N)cc1)C2: 20.4
CCOc1nnc(CN2CCC(N(C)Cc3noc(C)n3)C2)s1 (centres undefined): 11.4
CC1=Nc2c(c(=O)[nH]n2C(C)C)C(c2ccccc2)S1 (centres undefined): 32.4
NC(=O)N1CC[C@H](O)[C@@H]1Cc1cccnc1: 5.65
CC(NC(=O)NCCCn1cccn1)c1cccnc1 (centres undefined): 1.99
O=C(NCc1cnc2n1CCN(c1ncc(F)cn1)CC2)C1CCC1: -4.55
CCOCC(=O)N1C[C@@H]2COC[C@H](c3nc(C)no3)[C@@H]2C1: 1.97
COc1cccc(N2CCN(Cc3ncc[nH]3)CC2=O)c1: -17.7
Fc1cnc(N2CCCC3(CN(Cc4ccncc4)CCO3)C2)nc1 (centres undefined): 8.63
O=C(NC[C@@H]1CCCN1)c1cc(COc2cccc(C(F)(F)F)c2)[nH]n1: -13.9
c1cnnc(N2CCCC2CNc2ncnc3ccccc23)c1 (centres undefined): 36
CN(Cc1cccc(F)c1)S(=O)(=O)N1CCOCC1: 9.7

----------
Molecular target: AMP-activated protein kinase, AMPK (Homo sapiens) (UniProt P54646+O43741+P54619+Q9UGJ0+Q9Y478+Q13131+Q9UGI9)
Experiment: AMP-dependent Kinase enzyme assay. An in vitro enzyme assay that detects ADP turnover that is directly proportional to AMPK activity. This uses naive AMPK that is activated during the assay with MK-8722
Type: functional
Parameters: scale not given: direction of the effect not stated beside the values
Details: 30 µM
Recorded Percent Effect values for a group of molecules are listed next.
measured_metric: Percent Effect (%)

Cc1cnn(C2CN(CC(=O)NCCc3ccccc3)C2)c1: 3.48
COCCOc1ccccc1CNCc1c(C)nn(C)c1N(C)C: -17.4
Cc1cc(C)n(CCC(=O)N2CCC(c3nc(C(C)C)no3)CC2)n1: 4.41
Cc1nc(C)n(CC2CCCCN2CC(=O)Nc2cccnc2)n1 (stereo unspecified): -8.52
COc1ccnc(N2CCN(C(=O)CCc3nccs3)CC2)n1: -3.33
CSc1ccsc1C(=O)N1CCN(CC(C)(C)O)CC1: 0.454
COc1ccccc1[C@@H]1CN(Cc2cc(C(C)(C)C)[nH]n2)C[C@H]1C(=O)O: -4.78
Cc1nc(CN2CCN(C(=O)c3ccn(C)c(=O)c3)CC2)cs1: -4.58
O=C(Cn1ccc2ccc(Br)cc21)NCc1ccc(C(=O)O)cc1: 4.18
CCC(=O)N1Cc2nccn2CC(CN(C)Cc2cccnc2)C1 (stereo unspecified): 10.6
O=C(CN1CCC(c2cccc(F)c2)C1)NCC(F)(F)F (stereo unspecified): -1.43

----------
Form field: Percent Effect (one value per entry).
Molecular target: Protein translocase subunit SecA (Escherichia coli (strain K12))
Assay: Assay to Identify E. coli SecA ATPase Inhibitors
Type: functional
Design: scale not given: direction of the effect not stated beside the values
Conditions: 30 µM
Results with a measured potency or affinity are listed apart.
measured_metric: Percent Effect (%)

CN(C)S(=O)(=O)N1CCCC1CC(=O)c1cccs1 (centres undefined): 2.35
Cc1nc(CC(=O)N2CCCN(c3ccc(C#N)cc3)CC2)cs1: -2.43
COc1ccc(-c2noc(C(=O)NCCN3CCCCC3)n2)cc1OC: -7.28
Cc1cnc(CN(C)CC2CCCN2c2cccnn2)cn1 (centres undefined): 1.21
CC(C)(C)c1n[nH]c(C2CN(C(=O)c3cc(C4CC4)on3)CCO2)n1 (centres undefined): -2.82
Cn1cc(C2CCCN2C(=O)CCCOCc2ccccc2)cn1 (centres undefined): -4.26
COc1c(C2CCCN2C(=O)c2ccc3cc[nH]c3c2)c(C)nn1C (centres undefined): -4
Cc1cc(C)n(CC2CCCN2C(=O)c2cnn(C)c2C2CC2)n1 (centres undefined): -0.918
CC(C)c1ccc(CN2CCC3(CCCN(c4nncs4)C3)C2)cc1 (centres undefined): -5.12
CCN1C(=O)C(C)(C)c2cc(NC(=O)c3ccco3)ccc21: -5.66
Cc1cc(C2CCCN(C(=O)CN3CCN(C)CC3)C2)n[nH]1 (centres undefined): -0.557
Cc1cc(CC(=O)N(CC2CN(C)CCO2)c2nccs2)no1 (centres undefined): 1.69
O=C(c1ccn[nH]1)N1CCCC(n2cncn2)C1 (centres undefined): -7.58
O=C(CCNc1ncccn1)NCCOc1ccc2c(c1)CCC2: -3.51
Cc1ccc(CN(Cc2cccnc2)C2CC(C)(C)NC(C)(C)C2)s1: -5.72
CC(=O)N1CCN(S(=O)(=O)c2ccc(C)c(F)c2)CC1: -4.54
Cc1cc(C)n(CC2CCCN2C(=O)c2ccc3c(c2)nnn3C)n1 (centres undefined): -3.73
O=C(NCCn1ccc(-c2ccccn2)n1)C1CC1: -1.6
CN(C)CCN(C)C(=O)c1cnc2c(c1)nc(-c1ccccc1Cl)n2C: -6.72
O=C(NCCC(=O)N1CCCCCC1)c1c(O)cc(F)cc1F: -5.59
CCS(=O)(=O)N1CCc2ccc(NC(=O)Nc3ccc(F)cc3F)cc21: -3.73
Cc1ccc(CN2CCc3ncnc(C4CCOC4)c3CC2)s1 (centres undefined): 1.24
Cc1[nH]ncc1C(=O)N1CCCC(c2cc(C(F)(F)F)[nH]n2)C1 (centres undefined): -6.98
COc1cccc(CN2CCCCCC2c2cccc(C)c2)c1O (centres undefined): -3.46

----------
Target: Proteasome subunit beta (Trypanosoma cruzi) (UniProt O96673)
Sequence (O96673 as listed by the source): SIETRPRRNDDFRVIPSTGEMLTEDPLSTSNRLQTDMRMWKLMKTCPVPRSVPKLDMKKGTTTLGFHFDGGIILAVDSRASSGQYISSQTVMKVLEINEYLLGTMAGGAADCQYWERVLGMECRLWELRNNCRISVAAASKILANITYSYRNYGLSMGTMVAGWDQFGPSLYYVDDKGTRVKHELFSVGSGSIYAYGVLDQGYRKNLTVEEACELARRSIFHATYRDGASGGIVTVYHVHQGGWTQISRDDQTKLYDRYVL
Assay: Trypanosoma cruzi proteasome chymotrypsin-like activity (TcProtChymo) assay. Further: in the data most compounds retested in dose-response had high values.
Format: functional
Design: scale not given: direction of the effect not stated beside the values
Conditions: 9.37 µM
measured_metric: Percent Effect (%)

CC(C)CC(=O)N1CCc2nc(N3CCOCC3)nc(NC(C)C)c2C1: 2.03
O=C(c1ccsc1)N1CC(C(=O)N2CCOCC2)C2(CCOCC2)C1 (configuration not stated): 16.5
Cc1noc(C)c1CNC(=O)N1CCC(CO)CC1: 7.62
Cc1n[nH]c(C2CN(C(=O)c3cnc[nH]3)CCO2)n1 (configuration not stated): 12.8
COc1ccc(OCCCNC(=O)NCc2csc(C)n2)cc1: 7.54
CCN(CC)CCNC(=O)c1cnc(C(C)(C)C)s1: 8.21
Cc1nccc(C(=O)N2CCCN(Cc3cnn(C(C)C)c3)CC2)n1: 7.35
CCn1c(C)nnc1CN(C)C1CCN(Cc2nccn2C)C1 (configuration not stated): 11.8
Cc1nc(C)n(CC2CN(c3nnc(C)c(C)c3C#N)CCO2)n1 (configuration not stated): 8.52
COc1ccc(OCC(=O)NS(=O)(=O)c2cc(F)ccc2F)cc1: 5.34
CN(C)C(=O)Cc1ccc(NC(=O)NC2CCCCC2)cc1: 16
CCn1cc(Br)c(C(=O)NCc2cccnc2)n1: 19.3

----------
Parameter: Percent Effect. Scope: all listed entries.
Biological target: Sialic acid-binding Ig-like lectin 9 (Homo sapiens) (UniProt Q9Y336)
Sequence (Q9Y336 whole entry): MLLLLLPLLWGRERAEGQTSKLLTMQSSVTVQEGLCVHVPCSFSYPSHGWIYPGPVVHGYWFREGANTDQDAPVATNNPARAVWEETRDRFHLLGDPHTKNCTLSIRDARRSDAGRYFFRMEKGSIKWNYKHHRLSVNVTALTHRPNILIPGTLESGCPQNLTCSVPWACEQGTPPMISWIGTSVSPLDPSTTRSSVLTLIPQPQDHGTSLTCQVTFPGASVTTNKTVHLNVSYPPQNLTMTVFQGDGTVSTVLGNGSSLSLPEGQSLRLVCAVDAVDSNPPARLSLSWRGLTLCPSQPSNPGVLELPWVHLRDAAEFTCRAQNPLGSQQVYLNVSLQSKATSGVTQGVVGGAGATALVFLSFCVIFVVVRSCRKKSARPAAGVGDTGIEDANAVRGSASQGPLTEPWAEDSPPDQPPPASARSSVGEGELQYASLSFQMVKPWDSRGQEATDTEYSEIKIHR
Test: Hs-Siglec9 ALPHAscreen SOP 20170721
Set-up: scale not given: direction of the effect not stated beside the values
Details: 10 µM
measured_metric: Percent Effect (%)

Cn1cc(CN2CC3(CCN(C(=O)c4ccoc4)C3)C2)cn1: -0.00343
CC1=Nc2c(c(=O)[nH]n2C(C)C)C(c2ccccc2)S1 (stereo unspecified): 5.15
CCOCC(O)CN1CCN(C(=O)c2cc(F)ccc2C)CC1 (stereo unspecified): -1.76
Cc1nn(C)c2c(N3CCN(C(=O)C4CCC4)CC3)ncnc12: -1.34
N#Cc1cn(CC(=O)NC2CC2)c2ccc(Br)cc2c1=O: -2.14
COCCCNC(=O)CN(C)C(=O)c1cc(C)ccc1N(C)C(C)C: 6.07

Values from ChEMBL document CHEMBL3988442
